biological target: T1, human TMEM106B (human, UniProt Q9NUM4 2-274); assay: FACS HEK+huTMEM 1.0 ug/ml;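 further: binding of purified mouse IgG antibodies to HEK293 cells transiently expressing human TMEM106B, read by flow cytometry as median fluorescence intensity of live, propidium iodide-negative cells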
T1 construct: full-length, transiently expressed on HEK293 cells, or natively expressed on HeLa, U251 and A549 cells (the cell is named under assay); also the source of the Pepscan peptides; also called huTMEM106B; huTMEM
assay-endpoint: MFI (MFI)
API: value field is a number in MFI; no unit string.

Solved cases (2 shown):
TM-17 (antibody, V domains shown) VH: QVQLQQSGAELIRPGTSVKVSCKASGYAFTDYLIEWVKQRPGQGLEWIGVINPGSGGTNYNEKFKGKAKLTADKSSSTAYMQLSSLTSEDSAVYFCVRSSYGVYVAYPMDYWGQGTSVTVSS VL: DIQMTQSPSSLSASLGERVSLTCRASQDIGSNLNWLQQEPDGTIKRLIYATSSLDSGVPKRFSGSRSGSDYSLTISSLESEDFVDYYCLQYASSPRTFGGGTKLEIK | 2620
TM-8 (antibody, V domains shown, mouse IgG (hybridoma)) VH: QIQLVQSGPELKKPGETVKISCKASGYTFTDYPMHWVKQAPGKGFKWMGVIYTDTGEPKYAEVFKGRFAFSLETSASTAYLQINNLKNEDTATYFCVRRLAYWGQGTLVTVSA VL: DIKMTQSPSSMYASLGERVTITCKASQDINSYLSWFQQKPGKSPKTLIFRANRLVDGVPSRFSGSGSGQDYSLTISSLEYEDMGIYYCLQYDEFPLTFGAGTKLEMK | 317

Below: the item to evaluate.
The recorded MFI for TM-39 (antibody, V domains shown) VH: HVQRQQSGTELAKPGASVKLSCKTSGYTFTDYWMHWIKQRPGQGLEWIGFINPSSGYTKYNQNFKDKATLTADKSSSTAYMQLSSLTYEDSAVFYCAREAGSISDWYFDVWGTGTTVTVSS VL: DIVMTQAAPSIPVTPGESVSISCRSSKTLLNSNGNTYLYWFLQRPGQPPQLLIYRMSNLASGVPDRFSGSGSGTAFTLRISRVEAEDVGVYYCMQHLDYPYTFGGGTQLEIK is 55600
